assay_target: UniProt:P34969
Sequence (P34969 whole entry): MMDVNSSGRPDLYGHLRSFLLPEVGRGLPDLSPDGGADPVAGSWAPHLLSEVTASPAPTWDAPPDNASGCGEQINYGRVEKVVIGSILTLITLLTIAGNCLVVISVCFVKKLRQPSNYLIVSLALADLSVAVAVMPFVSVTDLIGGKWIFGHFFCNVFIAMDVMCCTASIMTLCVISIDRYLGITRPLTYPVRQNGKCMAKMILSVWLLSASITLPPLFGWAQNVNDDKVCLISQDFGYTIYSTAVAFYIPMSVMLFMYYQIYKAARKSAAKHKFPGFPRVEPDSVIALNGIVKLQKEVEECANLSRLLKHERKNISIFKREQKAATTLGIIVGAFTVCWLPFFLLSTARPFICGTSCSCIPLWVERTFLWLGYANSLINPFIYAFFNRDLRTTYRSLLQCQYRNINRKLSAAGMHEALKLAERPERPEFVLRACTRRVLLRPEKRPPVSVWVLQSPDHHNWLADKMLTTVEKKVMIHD
pKi: −log10 of the molar value.
test_readout: pKi

> print(dat)
                                   molecule  relation.qualifier  data.value
1  NC(N)=NC(=O)/C=C/c1ccc2c(c1)C(O)c1ccccc1-2 (configuration not stated)                   <        7.00
2          NC(N)=NC(=O)c1cccc2c1Cc1ccccc1-2                   =        6.62
3    NC(N)=NC(=O)c1ccc2c(c1)C(=O)c1ccccc1-2                   =        6.73
4        NC(N)=NC(=O)c1ccc2c(c1)Cc1ccccc1-2                   =        7.91
5          NC(N)=NC(=O)c1cccc2c1-c1ccccc1C2                   <        6.00
6          CN1CCC(=C2c3ccccc3CCc3sccc32)CC1                   =        7.60
7         NC(N)=NC(=O)c1ccc2c(c1)oc1ccccc12                   <        7.00

----------
assay_target: Muscarinic acetylcholine receptor M1 (Homo sapiens, UniProt P11229)
Sequence (P11229 whole entry): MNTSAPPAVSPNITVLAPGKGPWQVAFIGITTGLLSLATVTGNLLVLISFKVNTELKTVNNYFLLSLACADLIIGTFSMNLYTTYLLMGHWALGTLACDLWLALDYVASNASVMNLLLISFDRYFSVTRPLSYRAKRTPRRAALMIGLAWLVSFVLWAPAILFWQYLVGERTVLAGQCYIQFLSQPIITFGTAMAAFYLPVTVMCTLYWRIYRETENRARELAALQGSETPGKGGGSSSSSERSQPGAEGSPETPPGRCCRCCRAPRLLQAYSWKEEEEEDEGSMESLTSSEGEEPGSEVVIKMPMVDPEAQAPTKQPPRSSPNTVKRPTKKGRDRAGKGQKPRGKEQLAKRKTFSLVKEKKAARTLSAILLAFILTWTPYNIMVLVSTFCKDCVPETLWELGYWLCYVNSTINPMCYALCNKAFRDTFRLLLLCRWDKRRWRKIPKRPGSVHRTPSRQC
test_readout: Ki

> print(dat)
                                   compound                              assay.target  test.readout  data.value
1  CN1CCC(=C2c3ccccc3CCc3sccc32)CC1 [PIZOTYLINE]  Muscarinic acetylcholine receptor M1 (Homo sapiens, UniProt P11229)            Ki        2 nM

----------
assay_target: D(2) dopamine receptor (Homo sapiens, UniProt P14416)
Sequence (P14416 whole entry): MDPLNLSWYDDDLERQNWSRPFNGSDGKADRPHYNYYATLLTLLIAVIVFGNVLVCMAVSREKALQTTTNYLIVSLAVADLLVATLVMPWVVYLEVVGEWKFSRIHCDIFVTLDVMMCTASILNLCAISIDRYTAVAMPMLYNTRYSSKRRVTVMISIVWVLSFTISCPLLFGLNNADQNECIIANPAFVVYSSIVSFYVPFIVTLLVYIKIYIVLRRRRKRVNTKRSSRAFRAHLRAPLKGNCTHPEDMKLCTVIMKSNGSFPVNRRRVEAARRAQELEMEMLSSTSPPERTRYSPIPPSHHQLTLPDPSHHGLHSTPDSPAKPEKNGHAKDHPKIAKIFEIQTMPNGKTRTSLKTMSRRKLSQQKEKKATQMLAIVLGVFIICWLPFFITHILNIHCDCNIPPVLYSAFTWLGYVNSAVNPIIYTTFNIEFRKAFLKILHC
assay_explanation: Binding affinity to dopamine D2 receptor (unknown origin)
Ki listing for selected molecules.
test_readout: Ki (µM)

> print(dat)
                                   molecule                              assay.target  test.readout   u  relation.qualifier  data.value
1        NC(N)=NC(=O)c1ccc2c(c1)Cc1ccccc1-2  D(2) dopamine receptor (Homo sapiens, UniProt P14416)            Ki  µM                   =         1.4
2          CN1CCC(=C2c3ccccc3CCc3sccc32)CC1  D(2) dopamine receptor (Homo sapiens, UniProt P14416)            Ki  µM                   =      0.0024
3  Cl.NC(N)=NC(=O)c1ccc2c(c1)C(O)c1ccccc1-2 (stereo not drawn)  D(2) dopamine receptor (Homo sapiens, UniProt P14416)            Ki  µM                   >           1
